- study system: TAK1-TAB1 fusion protein (Homo sapiens, UniProt O43318)
- Sequence (O43318 with tags, fused parts or gaps limits assumed): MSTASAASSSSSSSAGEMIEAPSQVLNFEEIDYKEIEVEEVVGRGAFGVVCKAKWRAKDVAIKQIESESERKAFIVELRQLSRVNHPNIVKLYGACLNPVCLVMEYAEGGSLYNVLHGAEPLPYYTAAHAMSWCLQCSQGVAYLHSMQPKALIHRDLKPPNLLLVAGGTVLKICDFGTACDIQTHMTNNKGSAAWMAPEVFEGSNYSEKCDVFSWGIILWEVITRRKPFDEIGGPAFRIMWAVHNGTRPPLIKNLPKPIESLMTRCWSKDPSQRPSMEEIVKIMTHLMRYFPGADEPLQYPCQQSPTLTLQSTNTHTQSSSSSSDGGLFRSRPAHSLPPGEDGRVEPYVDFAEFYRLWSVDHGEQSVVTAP
- experiment summary: In vitro TAK1 kinase assay
- stated conditions: casein substrate, [33P]-γ-ATP, 90 minutes at 30° C., semi-quantitative score, read-out: POTENCY TAK1 (MAP3K7)
pIC50: −log10 of the molar value.
Reported pIC50 values for the following molecules.

{"molecule": "NC(=O)c1ccc(-c2ccc(Nc3ccc(N4CCOCC4)cc3)c3ncnn23)cc1", "pIC50": "< 5.00"}

Inquiry: Data request, read-out pIC50, for `c1nc2c(Nc3ccc(N4CCOCC4)cc3)ccc(-c3ccc4[nH]ccc4c3)n2n1`
Reply text: < 5.00

Inquiry: // query: `C[C@@H]1CN(c2ccc(Nc3ccc(-c4cc[nH]c(=O)c4)n4ncnc34)cc2)C[C@H](C)N1C`
Reply text: > 6.30

Inquiry: // query: `COc1cc(-c2ccc(Nc3ccc(N4CCN(CCC(C)C)CC4)cc3)c3ncnn23)ccn1`
Reply text: < 5.00

Inquiry: // query: Cc1[nH]ncc1-c1ccc(Nc2ccc(N3CCOCC3)cc2)c2ncnn12 [Example 39]
Reply text: 5.30 to 6.00

Inquiry: // query: `COc1cc(-c2ccc(Nc3ccc(N4CCN(C5CC5)CC4)cc3)c3ncnn23)ccn1`
Reply text: < 5.00

Inquiry: // query: O=C(NCc1cccnc1)c1ccc(Nc2ccc(-c3cn[nH]c3)n3ncnc23)cc1 [Example 37]
Reply text: 6.00 to 6.30

Inquiry: // query: `COc1cc(-c2ccc(Nc3ccc(N4CCN(C5CCC5)CC4)cc3)c3ncnn23)ccn1`
Reply text: < 5.00

----------
Reported pIC50 values for the following compounds.
- study system: TAK1-TAB1 fusion protein (Homo sapiens, UniProt O43318)
- experiment summary: In vitro TAK1 kinase assay
- stated conditions: casein substrate, [33P]-γ-ATP, 90 minutes at 30° C., semi-quantitative score, read-out: POTENCY TAK1 (MAP3K7)
pIC50: −log10 of the molar value.

{"compound": "C[C@@H]1CN(C)[C@@H](C)CN1c1ccc(Nc2ccc(-c3cc[nH]c(=O)c3)n3ncnc23)cc1F (relative stereo)", "recorded measurement": "> 6.30"}

Inquiry: Data request, read-out pIC50, for `CCCN1CCN(c2ccc(Nc3ccc(-c4ccnc(OC)c4)n4ncnc34)cc2)CC1`
Reply text: < 5.00

Inquiry: // query: O=C(NCc1cccnc1)c1ccc(Nc2ccc(-c3cc[nH]c(=O)c3)n3ncnc23)cc1 [Example 41]
Reply text: 5.30 to 6.00

Inquiry: // query: `c1cc(-c2ccc(Nc3ccc(N4CCOCC4)cc3)c3ncnn23)c2cc[nH]c2c1`
Reply text: < 5.00

Inquiry: // query: C[C@@H]1CN(C)[C@@H](C)CN1c1ccc(Nc2ccc(-c3cc[nH]c(=O)c3)n3ncnc23)cc1 (racemic)
Reply text: > 6.30

Inquiry: // query: `COc1cc(-c2ccc(Nc3ccc(N4CCN(C5CCCCC5)CC4)cc3)c3ncnn23)ccn1`
Reply text: < 5.00

----------
- Tested on: MMP1 expression by activated synovial fibroblasts (RASFs)
- experiment summary: MMP assay: MMP1 expression by RASFs triggered with TNF-α (MMP1 ELISA)
- Type: cell-based
- stated conditions: Fibroblast, 48 h, TNF-α trigger 10 ng/mL, semi-quantitative score, read-out: REDUCTION MMP1/TNFa
pIC50: −log10 of the molar value.
Reported pIC50 values for the following molecules.

{"molecule": "NC(=O)c1ccc(-c2ccc(Nc3ccc(N4CCN(C5CCC5)CC4)cc3)c3ncnn23)cc1 [Example 16]", "outcome measure": "pIC50", "recorded measurement": "5.00 to 5.30"}
{"molecule": "CC(C)N1CCN(c2ccc(Nc3ccc(-c4cccc(C(N)=O)c4)n4ncnc34)cc2)CC1 [Example 44]", "outcome measure": "pIC50", "recorded measurement": "5.30 to 6.00"}
{"molecule": "CC(C)N1CCN(c2ccc(Nc3ccc(-c4cccc5[nH]ccc45)n4ncnc34)cc2)CC1 [Example 49]", "outcome measure": "pIC50", "recorded measurement": "< 5.00"}

Inquiry: Data request, read-out pIC50, for CCCN1CCN(c2ccc(Nc3ccc(-c4ccnc(OC)c4)n4ncnc34)cc2)CC1 [Example 27]
Reply text: 5.30 to 6.00

Inquiry: // query: CN1CCN(c2ccc(Nc3ccc(-c4cn[nH]c4)n4ncnc34)cc2)CC1 [Example 2]
Reply text: 6.00 to 6.30

Inquiry: // query: CC(C)CCN1CCN(c2ccc(Nc3ccc(-c4ccc(C(N)=O)cc4)n4ncnc34)cc2)CC1 [Example 15]
Reply text: 5.30 to 6.00

Inquiry: // query: CN1CCN(c2ccc(Nc3ccc(-c4ccc(C(N)=O)c(F)c4)n4ncnc34)cc2)CC1 [Example 42]
Reply text: 6.00 to 6.30

Inquiry: // query: CCC(CC)N1CCN(c2ccc(Nc3ccc(-c4ccc(C(N)=O)cc4)n4ncnc34)cc2)CC1 [Example 14]
Reply text: < 5.00

Inquiry: // query: CCCN1CCN(c2ccc(Nc3ccc(-c4cc[nH]c(=O)c4)n4ncnc34)cc2)CC1 [Example 20]
Reply text: 5.30 to 6.00

Inquiry: // query: O=c1cc(-c2ccc(Nc3ccc(N4CCN(C5CC5)CC4)cc3)c3ncnn23)cc[nH]1 [Example 23]
Reply text: 5.30 to 6.00

----------
- Tested on: MMP1 expression by activated synovial fibroblasts (RASFs)
- experiment summary: MMP assay: MMP1 expression by RASFs triggered with TNF-α (MMP1 ELISA)
- Format: cell-based
- stated conditions: Fibroblast, 48 h, TNF-α trigger 10 ng/mL, semi-quantitative score, read-out: REDUCTION MMP1/TNFa
Reported IC50 values for the following compounds.

{"compound": "c1nc2c(Nc3ccc(N4CCOCC4)cc3)ccc(-c3ccc4[nH]ccc4c3)n2n1", "study system": "MMP1 expression by activated synovial fibroblasts (RASFs)", "IC50": "1 to 5 µM"}
{"compound": "CC(C)CCN1CCN(c2ccc(Nc3ccc(-c4cc[nH]c(=O)c4)n4ncnc34)cc2)CC1", "study system": "MMP1 expression by activated synovial fibroblasts (RASFs)", "IC50": "1 to 5 µM"}
{"compound": "COc1cc(-c2ccc(Nc3ccc(N4CCN(C5CC5)CC4)cc3)c3ncnn23)ccn1", "study system": "MMP1 expression by activated synovial fibroblasts (RASFs)", "IC50": "1 to 5 µM"}
{"compound": "COc1cc(-c2ccc(Nc3ccc(N4CCN(CCC(C)C)CC4)cc3)c3ncnn23)ccn1", "study system": "MMP1 expression by activated synovial fibroblasts (RASFs)", "IC50": "1 to 5 µM"}
{"compound": "NC(=O)c1ccc(-c2ccc(Nc3ccc(N4CCN(C5CC5)CC4)cc3)c3ncnn23)cc1", "study system": "MMP1 expression by activated synovial fibroblasts (RASFs)", "IC50": "1 to 5 µM"}

Inquiry: Data request, read-out IC50, for `CC(C)N1CCN(c2ccc(Nc3ccc(-c4c[nH]c(=O)[nH]c4=O)n4ncnc34)cc2)CC1`
Reply text: > 10 µM

Inquiry: // query: `c1nc2c(Nc3ccc(N4CCOCC4)cc3)ccc(-c3cn[nH]c3)n2n1`
Reply text: 0.501 to 1 µM

Inquiry: // query: `c1nc2c(Nc3ccc(N4CCOCC4)cc3)ccc(-c3ccc4cc[nH]c4c3)n2n1`
Reply text: > 10 µM

Inquiry: // query: `CN1CCN(c2ccc(Nc3ccc(-c4cc[nH]c(=O)c4)n4ncnc34)cc2)CC1`
Reply text: 1 to 5 µM

Inquiry: // query: `CCN1CCN(c2ccc(Nc3ccc(-c4cc[nH]c(=O)c4)n4ncnc34)cc2)CC1`
Reply text: 1 to 5 µM

Inquiry: // query: `COc1ncc(-c2ccc(Nc3ccc(N4CCN(C(C)C)CC4)cc3)c3ncnn23)c(OC)n1`
Reply text: > 10 µM

Inquiry: // query: `O=c1cc(-c2ccc(Nc3ccc(N4CCN(C5CCCCC5)CC4)cc3)c3ncnn23)cc[nH]1`
Reply text: 1 to 5 µM

----------
- Tested on: MMP1 expression by activated synovial fibroblasts (RASFs)
- experiment summary: MMP assay: MMP1 expression by RASFs triggered with 'complex trigger' (supernatant of TNF-α-treated THP-1 cells)
- Format: cell-based
- stated conditions: 'complex trigger' 12.5%, 48 hrs, MMP1 ELISA, semi-quantitative score, read-out: Reduction MMP1/THP1
Reported IC50 values for the following compounds.

Inquiry: Data request, read-out IC50, for `O=C(NCc1cccnc1)c1ccc(Nc2ccc(-c3cn[nH]c3)n3ncnc23)cc1`
Reply text: 1 to 5 µM

Inquiry: // query: `Cc1[nH]ncc1-c1ccc(Nc2ccc(N3CCOCC3)cc2)c2ncnn12`
Reply text: 5 to 10 µM

Inquiry: // query: `CN1CCN(c2ccc(Nc3ccc(-c4cc[nH]c(=O)c4)n4ncnc34)cc2)CC1`
Reply text: 1 to 5 µM

Inquiry: // query: `O=C(NCc1cccnc1)c1ccc(Nc2ccc(-c3cc[nH]c(=O)c3)n3ncnc23)cc1`
Reply text: > 10 µM

Inquiry: // query: `CN1CCN(c2ccc(Nc3ccc(-c4cn[nH]c4)n4ncnc34)cc2)CC1`
Reply text: > 10 µM
